system: 485176-168-R4-J1-PDC complex spheroid growth; assay: Anticancer human tumor 485176-168-R4-J1-PDC patient-derived pancreatic adenocarcinoma cell line growth inhibition [RAS]; conditions: second compound 1 µM; first compound 0.1 µM; active compounds read low
# Lookup of reported viability, T/C keyed by entry
# value in %; strip the unit string

Recorded viability, T/C, per entry:
C[C@@H](NC(=O)c1ncnc(N)c1Cl)c1ncc(C(=O)Nc2cc(C(F)(F)F)c(Cl)cn2)s1 + C#Cc1c(F)ccc2cc(O)cc(-c3ncc4c(N5CC6CCC(C5)N6)nc(OCC56CCCN5CC(F)C6)nc4c3F)c12; 81.8
NC1c2ccccc2OC12CCN(c1cnc3c(N4CCCc5ncccc54)n[nH]c3n1)CC2 (stereo not given) + C#Cc1c(F)ccc2cc(O)cc(-c3ncc4c(N5CC6CCC(C5)N6)nc(OCC56CCCN5CC(F)C6)nc4c3F)c12; 74
CC(C)n1nc(-c2ccc3oc(N)nc3c2)c2c(N)ncnc21 + C=CC(=O)N1CCN(c2nc(OCC3CCCN3C)nc3c(F)c(-c4nc(N)cc(C)c4C(F)(F)F)c(Cl)cc23)C(C)C1; 22.2
NC1c2ccccc2OC12CCN(c1cnc3c(N4CCCc5ncccc54)n[nH]c3n1)CC2 (stereo not given) + C=CC(=O)N1CCN(c2nc(OCC3CCCN3C)nc3c(F)c(-c4nc(N)cc(C)c4C(F)(F)F)c(Cl)cc23)C(C)C1; 68.8
CC(Nc1ccc2c(c1)OCCn1cc(N3C(=O)OCC3C(F)F)nc1-2)C(N)=O (stereo not given) + C=CC(=O)N1CCN(c2nc(OCC3CCCN3C)nc3c(F)c(-c4nc(N)cc(C)c4C(F)(F)F)c(Cl)cc23)C(C)C1; 85.7
CCN1CCN(Cc2ccc(Nc3ncc(F)c(-c4cc(F)c5nc(C)n(C(C)C)c5c4)n3)nc2)CC1 + C=CC(=O)N1CCN(c2nc(OCC3CCCN3C)nc3c(F)c(-c4nc(N)cc(C)c4C(F)(F)F)c(Cl)cc23)C(C)C1; 87
CC(C)NCC(C(=O)N1CCN(c2ncnc3c2C(C)CC3O)CC1)c1ccc(Cl)cc1 (stereo not given) + C#Cc1c(F)ccc2cc(O)cc(-c3ncc4c(N5CC6CCC(C5)N6)nc(OCC56CCCN5CC(F)C6)nc4c3F)c12; 105
CCN1CCN(Cc2ccc(Nc3ncc(F)c(-c4cc(F)c5nc(C)n(C(C)C)c5c4)n3)nc2)CC1 + C#Cc1c(F)ccc2cc(O)cc(-c3ncc4c(N5CC6CCC(C5)N6)nc(OCC56CCCN5CC(F)C6)nc4c3F)c12; 86.8
CC1(O)CCCC1n1c(=O)c(C(F)F)cc2cnc(NC3CCN(S(C)(=O)=O)CC3)nc21 (stereo not given) + C#Cc1c(F)ccc2cc(O)cc(-c3ncc4c(N5CC6CCC(C5)N6)nc(OCC56CCCN5CC(F)C6)nc4c3F)c12; 81.4

// recorded viability, T/C for CCC(CC)c1cc(NC2CCC(N)C2)n2nccc2n1 (stereo not given) + C#Cc1c(F)ccc2cc(O)cc(-c3ncc4c(N5CC6CCC(C5)N6)nc(OCC56CCCN5CC(F)C6)nc4c3F)c12 : 89.7

---

System: 485176-168-R4-J1-PDC complex spheroid growth
Experiment: Anticancer human tumor 485176-168-R4-J1-PDC cell line growth inhibition [RAS]; active = viability on the fitted dose curve at most 10% of control; inactive = the rest;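 further: spheroids exposed to compounds for seven days before readout; luminescence viability expressed relative to DMSO vehicle wells set as 100%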
Details: second compound 0.0316 µM; first compound 10 µM
Description: RAS pathway inhibitors in Combinations in Complex Spheroids A high-throughput screen of multi-cell type tumor spheroids was designed to identify active combinations of RAS pathway inhibitors and targeted small molecules. Complex spheroids include a stromal component modeled by human endothelial cells (HUVEC) and fibroblasts modeled by human mesenchymal stem cells (MSCs). […] Compounds. […] If the clinical Cmax for an agent had not been determined, the highest concentration tested was 10 microM. […]
Your response should consist of one outcome taken from yes for active, no for inactive

CC(Nc1ccc2c(c1)OCCn1cc(N3C(=O)OCC3C(F)F)nc1-2)C(N)=O (stereo unspecified) + C=CC(=O)N1CCN(c2nc(OCC3CCCN3C)nc3c(F)c(-c4nc(N)cc(C)c4C(F)(F)F)c(Cl)cc23)C(C)C1; no
C[C@@H](NC(=O)c1ncnc(N)c1Cl)c1ncc(C(=O)Nc2cc(C(F)(F)F)c(Cl)cn2)s1 + C=CC(=O)N1CCN(c2nc(OCC3CCCN3C)nc3c(F)c(-c4nc(N)cc(C)c4C(F)(F)F)c(Cl)cc23)C(C)C1; no
C[C@@H](NC(=O)c1ncnc(N)c1Cl)c1ncc(C(=O)Nc2cc(C(F)(F)F)c(Cl)cn2)s1 + C#Cc1c(F)ccc2cc(O)cc(-c3ncc4c(N5CC6CCC(C5)N6)nc(OCC56CCCN5CC(F)C6)nc4c3F)c12; no
CC(C)NCC(C(=O)N1CCN(c2ncnc3c2C(C)CC3O)CC1)c1ccc(Cl)cc1 (stereo unspecified) + C=CC(=O)N1CCN(c2nc(OCC3CCCN3C)nc3c(F)c(-c4nc(N)cc(C)c4C(F)(F)F)c(Cl)cc23)C(C)C1; no

Lookup: I would be grateful if you could indicate the recorded call for CC1(O)CCCC1n1c(=O)c(C(F)F)cc2cnc(NC3CCN(S(C)(=O)=O)CC3)nc21 (stereo unspecified) + C#Cc1c(F)ccc2cc(O)cc(-c3ncc4c(N5CC6CCC(C5)N6)nc(OCC56CCCN5CC(F)C6)nc4c3F)c12 .
Found: yes

Lookup: I would be grateful if you could indicate the recorded call for CC(=O)OC12COC1CC(O)C1(C)C(=O)C(O)C3=C(C)C(OC(=O)C(O)C(NC(=O)OC(C)(C)C)c4ccccc4)CC(O)(C(OC(=O)c4ccccc4)C21)C3(C)C (stereo unspecified) + C=CC(=O)N1CCN(c2nc(OCC3CCCN3C)nc3c(F)c(-c4nc(N)cc(C)c4C(F)(F)F)c(Cl)cc23)C(C)C1 .
Found: no

---

system: 485176-168-R4-J1-PDC complex spheroid growth; test: Anticancer human tumor 485176-168-R4-J1-PDC cell line growth inhibition [RAS]; details: second compound 0.000949 µM; first compound 1 µM; active compounds read low;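 further: spheroids exposed to compounds for seven days before readout; luminescence viability expressed relative to DMSO vehicle wells set as 100%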
Metric Name: viability, T/C (%)
# value in %; strip the unit string

C=CC(=O)N1CCN(c2nc(OCC3CCCN3C)nc3c(F)c(-c4nc(N)cc(C)c4C(F)(F)F)c(Cl)cc23)C(C)C1 (configuration not stated) + CCn1c(-c2cc(N3CCN(C)CC3)cnc2C(C)OC)c2c3cc(ccc31)-c1csc(n1)CC(NC(=O)C1CC1C)C(=O)N1CCCC(N1)C(=O)OCC(C)(C)C2; 99

Now for another entry.
// recorded viability, T/C for CC(Nc1ccc2c(c1)OCCn1cc(N3C(=O)OCC3C(F)F)nc1-2)C(N)=O (configuration not stated) + CCn1c(-c2cccnc2C(C)OC)c2c3cc(ccc31)N1CCOC(CC(NC(=O)C(C(C)C)N(C)C(=O)C3(F)CCN(C(=O)C#CC(C)(C)N(C)C)CC3)C(=O)N3CCCC(N3)C(=O)OCC(C)(C)C2)C1 : 77.1

---

# Lookup of reported viability, T/C keyed by entry
tested on: 485176-168-R4-J1-PDC complex spheroid growth; assay: Anticancer human tumor 485176-168-R4-J1-PDC cell line growth inhibition [RAS]; conditions: second compound 0.03 µM; first compound 1 µM; active compounds read low;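 further: spheroids exposed to compounds for seven days before readout; luminescence viability expressed relative to DMSO vehicle wells set as 100%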
# value in %; strip the unit string

O=C(c1ccc(F)c(F)c1Nc1ccc(I)cc1F)N1CC(O)([C@@H]2CCCCN2)C1 + CCn1c(-c2cccnc2C(C)OC)c2c3cc(ccc31)N1CCOC(CC(NC(=O)C(C(C)C)N(C)C(=O)C3(F)CCN(C(=O)C#CC(C)(C)N(C)C)CC3)C(=O)N3CCCC(N3)C(=O)OCC(C)(C)C2)C1; 36.7

Now for another entry.
// recorded viability, T/C for Nc1ccn(C2OC(CO)C(O)C2(F)F)c(=O)n1 (configuration not stated) + CCn1c(-c2cccnc2C(C)OC)c2c3cc(ccc31)N1CCOC(CC(NC(=O)C(C(C)C)N(C)C(=O)C3(F)CCN(C(=O)C#CC(C)(C)N(C)C)CC3)C(=O)N3CCCC(N3)C(=O)OCC(C)(C)C2)C1 : 6.73

---

test system: 485176-168-R4-J1-PDC complex spheroid growth; test: Anticancer human tumor 485176-168-R4-J1-PDC cell line growth inhibition [RAS]; details: second compound 0.00949 µM; first compound 0.003 µM; active compounds read low;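 further: spheroids exposed to compounds for seven days before readout; luminescence viability expressed relative to DMSO vehicle wells set as 100%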
Metric Name: viability, T/C

Recorded viability, T/C, per entry:
CC1(C)CCC(Nc2ncc(C(F)(F)F)c(-c3c[nH]c4c(P(C)(C)=O)c(C#N)ccc34)n2)CN1 (centres undefined) + CCn1c(-c2cccnc2C(C)OC)c2c3cc(ccc31)N1CCOC(CC(NC(=O)C(C(C)C)N(C)C(=O)C3(F)CCN(C(=O)C#CC(C)(C)N(C)C)CC3)C(=O)N3CCCC(N3)C(=O)OCC(C)(C)C2)C1; 91%
CC1(C)CCC(Nc2ncc(C(F)(F)F)c(-c3c[nH]c4c(P(C)(C)=O)c(C#N)ccc34)n2)CN1 (centres undefined) + CCn1c(-c2cc(N3CCN(C)CC3)cnc2C(C)OC)c2c3cc(ccc31)-c1csc(n1)CC(NC(=O)C1CC1C)C(=O)N1CCCC(N1)C(=O)OCC(C)(C)C2; 96.3%

// recorded viability, T/C for CCc1c2c(nc3ccc(O)cc13)-c1cc3c(c(=O)n1C2)COC(=O)[C@]3(O)CC + CCn1c(-c2cccnc2C(C)OC)c2c3cc(ccc31)N1CCOC(CC(NC(=O)C(C(C)C)N(C)C(=O)C3(F)CCN(C(=O)C#CC(C)(C)N(C)C)CC3)C(=O)N3CCCC(N3)C(=O)OCC(C)(C)C2)C1 : 96.3%

// recorded viability, T/C for CCc1c2c(nc3ccc(O)cc13)-c1cc3c(c(=O)n1C2)COC(=O)[C@]3(O)CC + CCn1c(-c2cc(N3CCN(C)CC3)cnc2C(C)OC)c2c3cc(ccc31)-c1csc(n1)CC(NC(=O)C1CC1C)C(=O)N1CCCC(N1)C(=O)OCC(C)(C)C2 : 77.8%
